Kindly state IC50 for each of the entries shown.
testedTarget: Calcitonin gene-related peptide type 1 receptor (Homo sapiens, UniProt O60894+Q16602)
Sequence (Q16602 whole entry, one chain of several): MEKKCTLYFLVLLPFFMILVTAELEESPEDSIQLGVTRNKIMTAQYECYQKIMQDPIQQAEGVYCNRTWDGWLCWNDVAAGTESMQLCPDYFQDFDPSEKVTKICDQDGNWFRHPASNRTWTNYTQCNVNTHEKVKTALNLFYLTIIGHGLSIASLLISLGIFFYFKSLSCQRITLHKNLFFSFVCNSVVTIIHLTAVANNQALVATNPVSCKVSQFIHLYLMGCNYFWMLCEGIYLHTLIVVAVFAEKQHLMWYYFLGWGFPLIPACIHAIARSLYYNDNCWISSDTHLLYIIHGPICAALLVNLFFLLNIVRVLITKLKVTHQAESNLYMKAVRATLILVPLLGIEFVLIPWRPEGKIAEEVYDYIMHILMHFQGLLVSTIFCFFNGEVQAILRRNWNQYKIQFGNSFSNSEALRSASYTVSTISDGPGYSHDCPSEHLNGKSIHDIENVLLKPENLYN
method: Affinity against human calcitonin gene related peptide receptor (1 uM) expressed in SK-N-MC cells using [125I]-CGRP as radioligand after 180 minutes of incubation at pH 7.40
Give the value, in units of µM, as a plain number.

Problem: Provide value of IC50 for this record tested with Calcitonin gene-related peptide type 1 receptor (Homo sapiens, UniProt O60894+Q16602): `COc1cccc(CCNC(=O)N[C@@H](Cc2cc(Br)c(O)c(Br)c2)C(=O)N[C@H](CCCCN)C(=O)N2CCN(c3ccncc3)CC2)c1`
Result: 0.2

Problem: Provide value of IC50 for this record tested with Calcitonin gene-related peptide type 1 receptor (Homo sapiens, UniProt O60894+Q16602): `NCCCC[C@@H](NC(=O)[C@H](Cc1cc(Br)c(N)c(Br)c1)NC(=O)CCCc1ccccc1)C(=O)Nc1ccccc1`
Result: 50

Problem: Provide value of IC50 for this record tested with Calcitonin gene-related peptide type 1 receptor (Homo sapiens, UniProt O60894+Q16602): `COc1ccccc1CCNC(=O)N[C@@H](Cc1cc(Br)c(O)c(Br)c1)C(=O)N[C@H](CCCCN)C(=O)NCCc1ccccc1`
Result: 13

Problem: Provide value of IC50 for this record tested with Calcitonin gene-related peptide type 1 receptor (Homo sapiens, UniProt O60894+Q16602): `COc1ccccc1N1CCN(C(=O)N[C@@H](Cc2cc(Br)c(O)c(Br)c2)C(=O)N[C@H](CCCCN)C(=O)N2CCN(c3ccncc3)CC2)CC1`
Result: 0.226

Problem: Provide value of IC50 for this record tested with Calcitonin gene-related peptide type 1 receptor (Homo sapiens, UniProt O60894+Q16602): `NCCCC[C@@H](NC(=O)[C@H](Cc1cc(Br)c(O)c(Br)c1)NC(=O)N1CCC(n2c(O)nc3ccccc32)CC1)C(=O)N1CCN(c2ccncc2)CC1`
Result: 0.0002

* * *

valueType: pIC50
Scale explanation: pIC50 corresponds to minus log10 of a concentration expressed in moles per litre.

Problem: Provide value of pIC50 for this record tested with Calcitonin gene-related peptide type 1 receptor (Rattus norvegicus, UniProt Q63118): `COc1cccc(CCNC(=O)N[C@@H](Cc2cc(Br)c(O)c(Br)c2)C(=O)N[C@H](CCCCN)C(=O)N2CCN(c3ccncc3)CC2)c1`
Sequence (Q63118 whole entry): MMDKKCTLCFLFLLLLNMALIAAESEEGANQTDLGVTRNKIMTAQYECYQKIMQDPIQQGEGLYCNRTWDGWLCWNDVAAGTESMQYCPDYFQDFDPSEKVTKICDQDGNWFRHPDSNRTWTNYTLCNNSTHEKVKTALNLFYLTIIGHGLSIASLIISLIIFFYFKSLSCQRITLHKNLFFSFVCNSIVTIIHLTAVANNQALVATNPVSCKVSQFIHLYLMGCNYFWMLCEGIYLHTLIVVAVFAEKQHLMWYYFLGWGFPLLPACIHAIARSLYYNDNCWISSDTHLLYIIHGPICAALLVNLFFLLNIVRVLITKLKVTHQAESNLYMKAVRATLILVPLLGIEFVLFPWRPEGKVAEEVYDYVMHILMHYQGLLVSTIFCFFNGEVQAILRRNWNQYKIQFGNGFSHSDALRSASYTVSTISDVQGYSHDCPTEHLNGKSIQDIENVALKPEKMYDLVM
Result: 4.15

* * *

testedTarget: Calcitonin gene-related peptide type 1 receptor (Homo sapiens, UniProt O60894+Q16602)
method: Affinity against human calcitonin gene related peptide receptor (1 uM) expressed in SK-N-MC cells using [125I]-CGRP as radioligand after 180 minutes of incubation at pH 7.40
valueType: log10 IC50 (log10 of the value in µM)
Each number you see is log10 of IC50, and the unit inside the log is µM.

Problem: Item under review: `COc1ccccc1C1CCN(C(=O)N[C@@H](Cc2cc(Br)c(O)c(Br)c2)C(=O)N[C@H](CCCCN)C(=O)N2CCN(c3ccncc3)CC2)CC1` . Reported log10 IC50?
Result: -0.60

Problem: Item under review: `NCCCC[C@@H](NC(=O)[C@H](Cc1cc(Br)c(O)c(Br)c1)NC(=O)N1CCC(N(C(N)=O)c2ccccc2)CC1)C(=O)N1CCN(c2ccncc2)CC1` . Reported log10 IC50?
Result: -2.33

Problem: Item under review: `NCCCC[C@@H](NC(=O)[C@H](Cc1cc(Br)c(O)c(Br)c1)NC(=O)N1CCC(n2c(=O)oc3ccccc32)CC1)C(=O)N1CCN(c2ccncc2)CC1` . Reported log10 IC50?
Result: -1.36

Problem: Item under review: `NCCCC[C@@H](NC(=O)[C@H](Cc1cc(Br)c(N)c(Br)c1)NC(=O)CCc1ccccc1)C(=O)NCCc1ccccc1` . Reported log10 IC50?
Result: 2.29

Problem: Item under review: `NCCCC[C@@H](NC(=O)[C@H](Cc1cc(Br)c(N)c(Br)c1)NC(=O)CCCc1ccccc1)C(=O)NCCc1ccccc1` . Reported log10 IC50?
Result: 1.60

Problem: Item under review: `NCCCC[C@@H](NC(=O)[C@H](Cc1cc(Br)c(O)c(Br)c1)NC(=O)CCCc1ccccc1)C(=O)NCCc1ccccc1` . Reported log10 IC50?
Result: 1.23

Problem: Item under review: `COc1ccccc1CCNC(=O)N[C@@H](Cc1cc(Br)c(O)c(Br)c1)C(=O)N[C@H](CCCCN)C(=O)N1CCN(c2ccncc2)CC1` . Reported log10 IC50?
Result: 0.00
